Ref: patent US20250205211A1

assay_explanation: FIH study: single doses and seven-day courses of Compound A in healthy participants (safety, pharmacokinetics)
Format: in vivo, human
condition_details: human, in vivo, oral, single dose 100 mg, FIH study, highest individual value, read-out: AUC0-inf highest value

{"columns": ["compound_structure", "output_unit", "AUC(0-inf)"],
 "data": [
  ["[2H]C([2H])([2H])CC(=O)c1cnc(NC(=O)C2CC2)cc1Nc1cccc(-c2ncn(C([2H])([2H])[2H])n2)c1OC", "ng·h/mL", 13700]
]}

* * *

assay_explanation: FIH study: single doses and seven-day courses of Compound A in healthy participants (safety, pharmacokinetics)
Format: in vivo, human
condition_details: human, in vivo, oral, single dose 100 mg, FIH study, highest individual value
attribute_measured: Cmax (ng/mL)

{"columns": ["molecule", "attribute_measured", "output_unit", "experimental_value"],
 "data": [
  ["[2H]C([2H])([2H])CC(=O)c1cnc(NC(=O)C2CC2)cc1Nc1cccc(-c2ncn(C([2H])([2H])[2H])n2)c1OC [Compound A]", "Cmax", "ng/mL", 1160]
]}

* * *

assay_explanation: FIH study: single doses and seven-day courses of Compound A in healthy participants (safety, pharmacokinetics)
Type: in vivo, human
condition_details: human, in vivo, oral, seven-day course, 40 mg q12h, read-out: mean AUC from time 0 to 12 hours at steady state [AUCo-12,ss]

{"columns": ["compound_structure", "AUC"],
 "data": [
  ["[2H]C([2H])([2H])CC(=O)c1cnc(NC(=O)C2CC2)cc1Nc1cccc(-c2ncn(C([2H])([2H])[2H])n2)c1OC", "3620 ng·h/mL"]
]}
